target: Ribosomal protein S6 kinase alpha-3 (Homo sapiens, UniProt P51812)
Sequence (P51812 whole entry): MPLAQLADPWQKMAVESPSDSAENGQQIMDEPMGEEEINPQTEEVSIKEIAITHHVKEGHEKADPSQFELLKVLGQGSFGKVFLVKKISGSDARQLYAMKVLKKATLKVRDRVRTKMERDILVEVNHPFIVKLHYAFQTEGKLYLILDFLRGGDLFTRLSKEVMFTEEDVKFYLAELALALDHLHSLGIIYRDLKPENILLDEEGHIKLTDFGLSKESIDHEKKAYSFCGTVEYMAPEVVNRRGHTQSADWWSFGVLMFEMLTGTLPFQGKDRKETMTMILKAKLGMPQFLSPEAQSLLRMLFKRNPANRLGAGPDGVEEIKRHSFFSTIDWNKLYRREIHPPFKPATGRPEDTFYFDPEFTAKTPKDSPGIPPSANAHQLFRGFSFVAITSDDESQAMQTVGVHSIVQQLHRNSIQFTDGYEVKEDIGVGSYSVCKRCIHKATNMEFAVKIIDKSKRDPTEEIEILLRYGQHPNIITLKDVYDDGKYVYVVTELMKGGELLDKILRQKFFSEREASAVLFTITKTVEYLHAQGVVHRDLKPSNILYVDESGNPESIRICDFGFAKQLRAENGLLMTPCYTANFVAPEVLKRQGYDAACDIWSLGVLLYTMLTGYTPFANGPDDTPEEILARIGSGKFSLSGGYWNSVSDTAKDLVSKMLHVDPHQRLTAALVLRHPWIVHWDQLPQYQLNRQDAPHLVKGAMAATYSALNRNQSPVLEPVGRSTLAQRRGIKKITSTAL
Outcome measure: IC50

**Q:** Any idea what its IC50 is? The compound is O=C(Nc1cccc(-c2c[nH]cn2)c1)c1ccc2cc3n(c2n1)CCCNC3=O
**A:** 0.017 µM
